logP reference
assayInfo: Partition coefficient (logP)
Assay type: physicochemical
conditionSet: octanol/water
# respond with the number and nothing more

The following compounds have reported results that may help.
CC(=N)Nc1cccc(C(=O)NNC(=O)CC(CC(=O)O)c2ccc(F)cc2)c1 (stereo not drawn)    1.6
Cc1ccnc(NCCCCC(=O)NNC(=O)NC(CC(=O)O)c2cccc3ccccc23)c1 (stereo not drawn)    2.64
N=C(N)Nc1cccc(C(=O)NNC(=O)NC(CC(=O)O)c2ccc(Cl)cc2)c1 (stereo not drawn)    1.26
N=C(N)NCCCCC(=O)NNC(=O)NC(CC(=O)O)c1ccccc1 (stereo not drawn)    -0.26
N=C(N)Nc1cccc(C(=O)NNC(=O)CC(CC(=O)O)c2ccccc2)c1 (stereo not drawn)    1.13

Read off the recorded logP for Cc1ccnc(NCCCCC(=O)NNC(=O)CC(CC(=O)O)c2cc(Cl)cc(Cl)c2)c1 (stereo not drawn) 3.19

Supply logP value. Item: NC(N)=Nc1cccc(C(=O)NNC(=O)NC(CC(=O)O)c2ccc(F)cc2)c1 (stereo not drawn) 0.86

Look up logP of Cc1ccnc(NCCCCC(=O)NNC(=O)NC(CC(=O)O)c2ccc(Br)cc2)c1 (stereo not drawn) and report it. 2.47

Specify reported logP for the compound shown: O=C(O)CC(CC(=O)NNC(=O)c1cccc(Nc2ccccn2)c1)c1cc(Cl)cc(Cl)c1 (stereo not drawn) 3.54

Indicate the recorded logP value for this compound: COc1ccc(C(CC(=O)O)NC(=O)NNC(=O)c2cccc(N=C(N)N)c2)cc1 (stereo not drawn) 0.58

Please give measured logP of the following entry: NC(N)=Nc1cccc(C(=O)NNC(=O)NC(CC(=O)O)c2cc(Cl)cc(Cl)c2)c1 (stereo not drawn) 1.82

Report measured logP; entry is N=C(N)Nc1cccc(C(=O)NNC(=O)CC(CC(=O)O)c2cc(Cl)cc(Cl)c2)c1 (stereo not drawn) 2.24

Provide only the value of recorded logP for Cc1ccnc(NCCCCC(=O)NNC(=O)CC(CC(=O)O)c2ccccc2)c1 (stereo not drawn) 2.07

Read off the recorded logP for CC(=N)Nc1cccc(C(=O)NNC(=O)CC(CC(=O)O)c2ccccc2)c1 (stereo not drawn) 1.44

Specify reported logP for the compound shown: CC(=N)Nc1cccc(C(=O)NNC(=O)CC(CC(=O)O)c2ccc(Cl)cc2)c1 (stereo not drawn) 2

Identify the reported logP for the following entry. N=C(N)Nc1cccc(C(=O)NNC(=O)NC(CC(=O)O)c2ccc(OC(F)(F)F)cc2)c1 (stereo not drawn) 2.23

Kindly indicate its recorded logP. Item: Cc1ccnc(NCCCCC(=O)NNC(=O)NC(CC(=O)O)c2ccc(OC(F)(F)F)cc2)c1 (stereo not drawn) 3.17

Answer with the recorded logP of Cc1ccnc(NCCCCC(=O)NNC(=O)CC(CC(=O)O)c2ccc(Br)cc2)c1 (stereo not drawn) only. 2.9

Quick one: give measured logP for Cc1ccnc(NCCCCC(=O)NNC(=O)NC(CC(=O)O)c2ccc(Cl)cc2)c1 (stereo not drawn) 2.2

Please list logP recorded for the compound COc1ccc(C(CC(=O)O)CC(=O)NNC(=O)CCCCNc2cc(C)ccn2)cc1 (stereo not drawn) 1.94

Query logP for N=C(N)Nc1cccc(C(=O)NNC(=O)CC(CC(=O)O)c2ccc(Cl)cc2)c1 (stereo not drawn) 1.68

Give the value of logP reported for the following: CC(N)=Nc1cccc(C(=O)NNC(=O)CC(CC(=O)O)c2ccc(Br)cc2)c1 (stereo not drawn) 2.27
